biological target: Caspase-3 (Homo sapiens, UniProt P42574); type: functional;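 also: Dose-response selectivity test against caspase-3 for candidate inhibitors of sentrin-specific proteases (SENPs)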
Sequence (P42574 29-175 limits assumed): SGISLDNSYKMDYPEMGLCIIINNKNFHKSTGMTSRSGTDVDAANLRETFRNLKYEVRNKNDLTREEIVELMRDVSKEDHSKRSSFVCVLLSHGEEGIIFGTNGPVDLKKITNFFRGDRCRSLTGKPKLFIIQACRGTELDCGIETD
Sequence (P42574 176-277 limits assumed): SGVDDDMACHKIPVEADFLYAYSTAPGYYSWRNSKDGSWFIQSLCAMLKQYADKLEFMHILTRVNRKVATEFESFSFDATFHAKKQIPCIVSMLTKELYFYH
Active and inactive are the calls of the source.
Please answer using one outcome listed in T = active, F = inactive

Use these answered entries as a reference point.
> print(dat)
                               cpdsmiles  classlabel
1    CC(C)OCCCNC1=C(Cl)C(=O)c2ccccc2C1=O           T
2     CCOC(=O)c1cc(-c2cc3ccccc3o2)[nH]n1           T
3  O=C(/C=C/c1ccc(Br)cc1)NC(=O)c1ccccc1O           F
4  CC(=O)c1sc(N/N=C\c2ccc(N(C)C)cc2)nc1C           T

Please look at the following compound next.
I'd appreciate the recorded outcome for CC(=O)N(C1=C(Cl)C(=O)c2ccccc2C1=O)c1ccc(C(=O)O)cc1 from this test.
T

---

Reported AC50 for target or system Cytochrome P450 3A4 (Homo sapiens, UniProt P08684), by entry.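 Also: CYP3A4 tested as one member of a cytochrome P450 panel screen.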

Some solved cases for reference:
> print(dat)
                                   compound           reportedvalue
1   CCn1c(=O)c2[nH]c(-c3ccccc3)nc2n(CC)c1=O  3.98 µM (inconclusive)
2  C[C@H]1CC(C)(C)C[C@@](OCCN2CCCCC2)(c2ccccc2)C1  3.16 µM (inconclusive)
3           O=C(Cc1ccccc1)Nc1ccccc1N1CCOCC1  6.31 µM (inconclusive)

// each listed compound needs a value for AC50
1. N#Cc1ccccc1-c1cncnc1NCc1cccnc1
2. O=c1c(-c2ccccc2)nc2cnc(Nc3ccccc3)nc2n1C[C@H]1CCCO1
3. COc1ccc(/N=C2/S/C(=C\c3ccc(C)s3)C(=O)N2CC(C)C)cc1
4. Cc1ccc(C(c2ccc(C)o2)c2cccc([N+](=O)[O-])c2O)o1

0.2 µM (inconclusive)
12.6 µM (inconclusive)
5.01 µM (inconclusive)
28.2 µM (inconclusive)

Hello, I would appreciate it if you could give AC50 for each entry below.
1. CCOC(=O)CC(Nc1nc(N2CCOCC2)nc(N2CCOCC2)n1)c1ccccc1Cl (stereo unspecified)
2. N#Cc1cc(-c2ccc(Cl)cc2)cnc1Sc1ccc(F)cc1

1. 25.1 µM (inconclusive)
2. 14.1 µM (inconclusive)

Please go through the list and note AC50 for each compound.
1. COc1ccc(C(=O)N2CC3(CC(c4ccc(Cl)cc4)=NO3)C[C@H]2C(=O)NCC(N)=O)cc1 (stereo partly specified)
2. Cc1ccc(-c2nnc(-c3ccc(NC(=O)c4cccs4)cc3)o2)cc1
3. Cc1ccc(S(=O)(=O)NNc2ccccc2)cc1
4. COCC(=O)N1CCC[C@@]2(CCN(C(c3ccccc3)c3ccccc3)C2)C1
5. S=C1SCN(CCN2CCOCC2)CN1Cc1ccccc1

1: 31.6 µM (inconclusive); 2: 20 µM (inconclusive); 3: 28.2 µM (inconclusive); 4: 10 µM (inconclusive); 5: 28.2 µM (inconclusive)

Quick request: AC50 for each listed item, please.
1. O=C(O)[C@@H]1[C@@H](C(=O)NCc2ccncc2)[C@@H]2C=C[C@@H]1O2
2. COC(=O)N1CCC2(CCCN(Cc3ccccc3OC)C2)CC1

["3.98 µM (inconclusive)", "6.31 µM (inconclusive)"]

---

List of AC50 tested on Cytochrome P450 2C9 (Homo sapiens, UniProt P11712).
Sequence (P11712 whole entry): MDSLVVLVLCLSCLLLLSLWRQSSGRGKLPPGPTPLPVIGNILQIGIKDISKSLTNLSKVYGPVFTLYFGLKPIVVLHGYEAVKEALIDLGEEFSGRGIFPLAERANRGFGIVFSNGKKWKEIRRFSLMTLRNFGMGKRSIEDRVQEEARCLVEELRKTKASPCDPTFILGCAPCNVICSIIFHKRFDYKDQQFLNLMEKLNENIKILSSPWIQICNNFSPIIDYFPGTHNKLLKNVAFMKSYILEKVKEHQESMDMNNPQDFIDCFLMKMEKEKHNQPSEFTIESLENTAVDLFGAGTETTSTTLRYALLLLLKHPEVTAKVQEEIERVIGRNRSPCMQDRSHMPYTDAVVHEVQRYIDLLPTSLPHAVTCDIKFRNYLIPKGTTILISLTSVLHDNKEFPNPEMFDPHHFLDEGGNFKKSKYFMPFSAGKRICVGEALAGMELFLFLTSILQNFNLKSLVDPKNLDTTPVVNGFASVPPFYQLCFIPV

Recorded AC50, per entry:
> print(dat)
                                   molecule  outcomemeasure           reportedvalue
1            Nc1nc(SCCc2ccccc2)c2nc[nH]c2n1            AC50  3.98 µM (inconclusive)
2  COc1cccc(C2NC(c3cccc(OC)c3O)C(C)C(=O)C2C)c1O (stereo not given)            AC50    10 µM (inconclusive)
3       Cn1c(-c2ccc(F)cc2)cnc1NCc1ccc(F)cc1            AC50    20 µM (inconclusive)
4  CC(C)CCN1C(=O)c2ccc(-c3nc4ccccc4c(=O)o3)cc2C1=O            AC50  3.16 µM (inconclusive)
5  O=C(O)Cc1ccc2c(c1)N(S(=O)(=O)c1cccc(C(F)(F)F)c1)CC(C(=O)O)O2 (stereo not given)            AC50  15.8 µM (inconclusive)

For the 6 molecules below, give their AC50 values.
1. CNc1cnn(-c2ccccc2)c(=O)c1Cl
2. COc1cc(NC(=O)COC(=O)c2nc3nc(C)cc(C)n3n2)cc(OC)c1
3. CCCC[C@H](CC)CNC(=N)NC(=N)NCCCCCCNC(=N)NC(=N)NC[C@@H](CC)CCCC
4. CC1=C(C(=O)Nc2ccccc2)C(c2ccco2)NC(S)=N1 (stereo not given)
5. CCOC(=O)CN(c1ccccn1)S(=O)(=O)c1ccccc1
6. CC(C)(C)NS(=O)(=O)c1ccc(NC(=O)C(Sc2ccccc2)c2ccccc2)cc1 (stereo not given)

1 µM (inconclusive)
28.2 µM (inconclusive)
20 µM (inconclusive)
12.6 µM (inconclusive)
3.55 µM (inconclusive)
2 µM (inconclusive)

Report AC50 for each item below.
1. CCN1CCc2nc(NC(=O)c3ccc4c(c3)OCCO4)sc2C1
2. N#Cc1cc(-c2ccc(Cl)cc2)cnc1Sc1ccc(F)cc1
3. CCOC(=O)CSC1=C(C#N)C(C)C2=C(O)CCCC2=N1 (stereo not given)
4. COc1cccc(OCc2nnc(SCC(=O)NCc3ccco3)n2C)c1

1: 12.6 µM (inconclusive); 2: 7.94 µM (inconclusive); 3: 22.4 µM (inconclusive); 4: 15.8 µM (inconclusive)
